// provenance: patent US20010012854A1

System: Lewis lung (murine) lung carcinoma
Test description: Calcein-AM viability assay, Lewis Lung
Format: cell-based
Cond: Mus musculus, 24 h
Property measured: IC50 (nM)
One number for each entry, in nM.

Prompt: In one line, give reported IC50 of the entry CC(C)C[C@@H](NC(=O)[C@H](CCCN/C(N)=N/[N+](=O)[O-])NC(=O)C(CCCCCCCCN1C(=O)c2ccccc2C1=O)C1CCCC1)B1O[C@H]2CC3CC(C3(C)C)C2(C)O1 (stereo partly shown) .
Response: 411

----------
Test system: Jurkat Human T Cell Leukemia Line
Test description: Jurkat cell viability assay (XTT reduction)
Format: cell-based
Cond: Jurkat cells, 24 hours, viability by XTT reduction, read-out: Toxicity (IC50)
Property measured: IC50 (nM)
One number for each entry, in nM.

State recorded IC50 for all listed compounds.
1. CC(C)C[C@H](NC(=O)[C@H](CCCNC(N)=N[N+](=O)[O-])NC(=O)C(CCCCCCCCC#N)C1CCCC1)B(O)O (stereo partly shown)
2. CC(C)C[C@@H](C=O)NC(=O)[C@@H](CCCNC(=N)N[N+](=O)[O-])NC(=O)C(CCCCCCCCN1C(=O)c2ccccc2C1=O)C1CCCC1 (stereo partly shown)
3. CC(C)C[C@@H](C=O)NC(=O)[C@@H](CCCNC(=N)N[N+](=O)[O-])NC(=O)C(CCCCCCCCC#N)C1CCCC1 (stereo partly shown)
4. COC(=O)CCCCCCCCC(C(=O)N[C@@H](CCCNC(=N)NS(=O)(=O)c1ccc2c(c1)CCC(C)(C)O2)C(=O)NC(C=O)CC(C)C)C1CCCC1 (stereo partly shown)
5. Cc1c(C)c(S(=O)(=O)NC(=N)NCCC[C@H](NC(=O)C(CCCCCCCCC#N)C2CCCC2)C(=O)N[C@H](C=O)CC(C)C)c(C)c2c1OC(C)(C)CC2 (stereo partly shown)
6. CCNC(=O)C(=O)C(CC(C)C)NC(=O)C(CCCN/C(N)=N/[N+](=O)[O-])NC(=O)C(CCCCCCCCC#N)C1CCCC1 (stereo not shown)

Response:
[600, 500, 1600, 1700, 5700, 9700]
